Reference for the values: patent US20230192831A1

Target: recombinant human GREM1 (hGREM1-His; C-terminal 10His tagged, R&D, #5190-GR) (human) (UniProt O60565)
Sequence (O60565 other isoform, or with tags, fused parts or gaps limits assumed, form in doubt): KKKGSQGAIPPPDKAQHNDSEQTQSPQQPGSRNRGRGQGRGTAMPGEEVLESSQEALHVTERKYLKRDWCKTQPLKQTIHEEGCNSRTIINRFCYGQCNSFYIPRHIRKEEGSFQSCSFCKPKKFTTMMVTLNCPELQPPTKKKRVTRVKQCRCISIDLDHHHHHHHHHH
Assay: cell-based or functional assay
measured property: IC50 [M], W-20-17/BRE-luc luciferase bioassay, 100 pM hBMP4 and 10 nM hGREM1-His (M)
Give just the number in M; leave the unit off.

Note down IC50 [M], W-20-17/BRE-luc luciferase bioassay, 100 pM hBMP4 and 10 nM hGREM1-His recorded for H4H2783N2 (antibody, human IgG4, V domains shown) VH: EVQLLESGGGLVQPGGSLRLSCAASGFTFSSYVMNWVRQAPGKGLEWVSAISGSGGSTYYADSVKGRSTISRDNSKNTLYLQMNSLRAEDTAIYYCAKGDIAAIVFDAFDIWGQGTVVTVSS VL: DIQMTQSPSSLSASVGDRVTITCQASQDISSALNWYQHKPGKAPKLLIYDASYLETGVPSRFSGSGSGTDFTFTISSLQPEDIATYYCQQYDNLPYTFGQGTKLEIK
1.3e-09

Next:
Note down IC50 [M], W-20-17/BRE-luc luciferase bioassay, 100 pM hBMP4 and 10 nM hGREM1-His recorded for H4H2889N (antibody, human IgG4, V domains shown) VH: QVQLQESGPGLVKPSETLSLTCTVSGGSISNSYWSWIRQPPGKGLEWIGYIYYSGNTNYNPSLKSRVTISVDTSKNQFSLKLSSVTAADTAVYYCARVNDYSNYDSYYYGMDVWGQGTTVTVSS VL: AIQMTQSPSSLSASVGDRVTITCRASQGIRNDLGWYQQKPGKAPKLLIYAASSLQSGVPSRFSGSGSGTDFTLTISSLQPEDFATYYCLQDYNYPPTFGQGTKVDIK
1.2e-09

Note down IC50 [M], W-20-17/BRE-luc luciferase bioassay, 100 pM hBMP4 and 10 nM hGREM1-His recorded for H4H6260P (antibody, human IgG4, V domains shown) VH: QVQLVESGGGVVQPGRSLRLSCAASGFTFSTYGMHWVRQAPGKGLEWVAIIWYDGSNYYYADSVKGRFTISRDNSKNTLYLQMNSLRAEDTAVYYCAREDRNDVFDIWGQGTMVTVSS VL: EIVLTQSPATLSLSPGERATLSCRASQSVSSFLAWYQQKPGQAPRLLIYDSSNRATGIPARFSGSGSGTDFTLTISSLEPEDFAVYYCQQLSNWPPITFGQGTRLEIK
4.6e-10

Note down IC50 [M], W-20-17/BRE-luc luciferase bioassay, 100 pM hBMP4 and 10 nM hGREM1-His recorded for H4H6246P (antibody, human IgG4, V domains shown) VH: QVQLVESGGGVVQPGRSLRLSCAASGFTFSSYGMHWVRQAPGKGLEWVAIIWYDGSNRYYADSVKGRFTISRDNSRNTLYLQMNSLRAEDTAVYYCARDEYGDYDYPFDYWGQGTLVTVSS VL: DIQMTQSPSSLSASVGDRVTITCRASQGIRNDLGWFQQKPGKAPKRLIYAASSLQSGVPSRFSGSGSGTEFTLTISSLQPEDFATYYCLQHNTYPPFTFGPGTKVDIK
5.6e-10

Note down IC50 [M], W-20-17/BRE-luc luciferase bioassay, 100 pM hBMP4 and 10 nM hGREM1-His recorded for H4H6248P (antibody, human IgG4, V domains shown) VH: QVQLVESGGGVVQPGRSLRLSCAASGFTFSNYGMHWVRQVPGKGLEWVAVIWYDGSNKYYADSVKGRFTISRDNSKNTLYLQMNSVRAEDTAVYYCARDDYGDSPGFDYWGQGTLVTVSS VL: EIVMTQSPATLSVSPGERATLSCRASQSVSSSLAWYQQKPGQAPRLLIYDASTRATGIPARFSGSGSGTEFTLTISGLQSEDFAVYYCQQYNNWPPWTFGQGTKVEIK
5.3e-10

Note down IC50 [M], W-20-17/BRE-luc luciferase bioassay, 100 pM hBMP4 and 10 nM hGREM1-His recorded for H4H6250P (antibody, human IgG4, V domains shown) VH: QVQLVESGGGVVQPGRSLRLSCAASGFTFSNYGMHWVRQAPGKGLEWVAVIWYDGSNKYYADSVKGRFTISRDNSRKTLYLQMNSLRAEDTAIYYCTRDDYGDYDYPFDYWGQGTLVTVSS VL: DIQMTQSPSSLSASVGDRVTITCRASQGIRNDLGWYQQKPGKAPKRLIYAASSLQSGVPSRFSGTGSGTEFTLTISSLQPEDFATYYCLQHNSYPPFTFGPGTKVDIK
4.4e-10
